Target: hGcgR (Homo sapiens)
Sequence (P47871 26-477): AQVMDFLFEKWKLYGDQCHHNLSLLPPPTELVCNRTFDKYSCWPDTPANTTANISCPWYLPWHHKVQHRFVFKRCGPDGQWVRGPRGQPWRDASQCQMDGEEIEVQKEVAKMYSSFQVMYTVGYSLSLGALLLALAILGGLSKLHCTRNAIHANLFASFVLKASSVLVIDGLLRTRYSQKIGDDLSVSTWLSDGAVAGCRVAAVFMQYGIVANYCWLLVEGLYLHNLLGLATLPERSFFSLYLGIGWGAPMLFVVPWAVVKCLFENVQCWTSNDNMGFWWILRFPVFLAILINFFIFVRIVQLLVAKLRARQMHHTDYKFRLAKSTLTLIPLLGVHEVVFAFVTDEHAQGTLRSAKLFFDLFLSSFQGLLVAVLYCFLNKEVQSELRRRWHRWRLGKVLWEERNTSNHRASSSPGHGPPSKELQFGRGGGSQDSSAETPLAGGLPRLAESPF
Experiment: Functional cAMP activation in the presence of 0.1% casein (no HSA);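 note: intracellular cAMP rise after 30 min at 37 °C, read by HTRF against a cAMP standard curve, scaled from buffer only (0%) to maximal control ligand response (100%)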
Type: cell-based
Settings: in the presence of 0.1% casein (no HSA); geometric mean; read-out: Relative cAMP EC50, hGcgR
Starred links: 1 amine or outer side, 2 acyl side, 3 side chain; linkers in the order of their positions; H or OH if unused. Non-standard residues stand in square brackets, D forms with d. Groups on a side chain read outwards from the residue. No end group written: not given here. *: point of attachment. C18 diacid = O=C(O)CCCCCCCCCCCCCCCCC(=O)*; γGlu = O=C(O)[C@H](CCC(=O)[*:2])N[*:1]; αMe4Pal = C[C@](N)(Cc1ccncc1)C(=O)O; αMeY = C[C@](N)(Cc1ccc(O)cc1)C(=O)O; 4Pal = N[C@@H](Cc1ccncc1)C(=O)O; αMeL = CC(C)C[C@](C)(N)C(=O)O; Orn = NCCC[C@H](N)C(=O)O; AEEA = NCCOCCOCC(=O)O; Aib = CC(C)(N)C(=O)O
Listing of entries alongside the reported pEC50.
Friendly reminder that pEC50 comes from taking -log10 of the concentration in mol/L.

Below are worked cases with known answers.
H-Y[Aib]QGTFTSDFS[Orn][αMeL]LDKK([AEEA-AEEA-γGlu-C18 diacid])AQ[Aib]AFIEYLLE[dA]GPSSGHPPPSGS-NH2 [Example 253] ... 8.18
H-Y[Aib]QGTFTSD[4Pal]SQ[αMeL]LD[Orn]K([γGlu-γGlu-C18 diacid])AQ[αMe4Pal]AFIE[αMeY]LIEGGPSSGEPPPSGSEE-NH2 [Example 1027] ... 8.30

Look at this substance and give its reported pEC50. H-Y[Aib]QGTFTSDFS[Orn][αMeL]LDKK([AEEA-γGlu-C18 diacid])AQ[Aib]AFIEYLIE[Aib]GESSGAPPPSGE-NH2 [Example 219] 8.11

Look at this substance and give its reported pEC50. Y[Aib]QGTFTSDFS[Orn][αMeL]LDKK([AEEA-γGlu-C18 diacid])AQ[Aib]AFIEWLLEGGHSSGAPPPGGE-NH2 [Example 273] 8.16

---

Target: hGIPR (Homo sapiens, UniProt P48546)
Sequence (P48546 22-466): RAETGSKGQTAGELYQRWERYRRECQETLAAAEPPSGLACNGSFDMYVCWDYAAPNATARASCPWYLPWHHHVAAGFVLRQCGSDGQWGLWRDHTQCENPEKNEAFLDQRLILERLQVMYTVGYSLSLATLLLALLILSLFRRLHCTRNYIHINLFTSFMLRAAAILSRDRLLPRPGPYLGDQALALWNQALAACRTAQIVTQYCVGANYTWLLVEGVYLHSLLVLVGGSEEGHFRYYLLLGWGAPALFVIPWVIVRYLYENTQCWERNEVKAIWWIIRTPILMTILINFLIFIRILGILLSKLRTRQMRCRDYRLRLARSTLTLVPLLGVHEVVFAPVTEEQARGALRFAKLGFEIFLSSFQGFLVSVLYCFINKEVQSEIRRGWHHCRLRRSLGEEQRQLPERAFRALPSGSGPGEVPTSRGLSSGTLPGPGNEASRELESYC
Assay: Functional cAMP activation in the presence of 0.1% casein (no HSA);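 for Relative cAMP EC50, hGIPR: intracellular cAMP rise after 30 min at 37 °C read by HTRF against a standard curve, scaled between buffer alone (0%) and top control ligand concentration (100%), four-parameter fit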
Format: cell-based
Settings: in the presence of 0.1% casein (no HSA); geometric mean; read-out: Relative cAMP EC50, hGIPR
Starred links: 1 amine or outer side, 2 acyl side, 3 side chain; linkers in the order of their positions; H or OH if unused. Non-standard residues stand in square brackets, D forms with d. Groups on a side chain read outwards from the residue. No end group written: not given here. *: point of attachment. C18 diacid = O=C(O)CCCCCCCCCCCCCCCCC(=O)*; γGlu = O=C(O)[C@H](CCC(=O)[*:2])N[*:1]; αMe4Pal = C[C@](N)(Cc1ccncc1)C(=O)O; 4Pal = N[C@@H](Cc1ccncc1)C(=O)O; αMeL = CC(C)C[C@](C)(N)C(=O)O; AEEA = NCCOCCOCC(=O)O; Aib = CC(C)(N)C(=O)O
quantity-name: pEC50
Friendly reminder that pEC50 comes from taking -log10 of the concentration in mol/L.

Below are worked cases with known answers.
Y[Aib]QGTFTSD[4Pal]SQ[αMeL]LDKK([AEEA-γGlu-C18 diacid])AQ[Aib]AFIEYLLE[dA]GPSSGAPPPSGS-NH2 [Example 820] ... 9.92
H-Y[Aib]QGTFTSD[4Pal]SQ[αMeL]LDKK([AEEA-γGlu-C18 diacid])AQ[αMe4Pal]AFIEYLIE[Aib]GPSSGAPPPSGT-NH2 [Example 834] ... 10.03
Y[Aib]QGTFTSD[4Pal]SQ[αMeL]LDKK([γGlu-γGlu-C18 diacid])AQ[αMe4Pal]AFIEYLIE[Aib]GPSSGAPPPSGS-NH2 [Example 858] ... 10.00

// switching to the query substance
Look at this substance and give its reported pEC50. H-Y[Aib]QGTFTSD[4Pal]SR[αMeL]LDKK([AEEA-γGlu-C18 diacid])AQ[Aib]AFIEYLLE[Aib]GPSSGAPPPSGE-NH2 [Example 114] 9.85
